Test Description: Cytotoxicity against human SMMC7721 cells by MTT assay
Format: functional, cell-based
Experimental Setup: SMMC-7721
Quantity Measured: IC50

Lab note: measured IC50 of CN1c2ccccc2C2(C)CCNC12 (stereo not drawn) was > 20 µM

get_value(item= CN1c2ccccc2C2(C)CCN(C(=O)Cn3ccnc3)C12 (stereo not drawn) , readout=IC50) returns > 20 µM

// recorded IC50 for Cc1n(CC(=O)N2CCC3(C)c4ccccc4N(C)C23)cc[n+]1CC(=O)c1ccc(Br)cc1 (stereo not drawn) : > 20 µM

The reported measurements were obtained from ChEMBL document CHEMBL3745696.
